Target Under Test: 2,5-diketo-D-gluconic acid reductase A (Corynebacterium sp., wild type SEQ ID NO:1) variant K232Q (Corynebacterium sp., UniProt P06632, K232Q)
Construct: GroES fragment (N)
Sequence (P06632 whole entry K232Q, the tested form may be a part): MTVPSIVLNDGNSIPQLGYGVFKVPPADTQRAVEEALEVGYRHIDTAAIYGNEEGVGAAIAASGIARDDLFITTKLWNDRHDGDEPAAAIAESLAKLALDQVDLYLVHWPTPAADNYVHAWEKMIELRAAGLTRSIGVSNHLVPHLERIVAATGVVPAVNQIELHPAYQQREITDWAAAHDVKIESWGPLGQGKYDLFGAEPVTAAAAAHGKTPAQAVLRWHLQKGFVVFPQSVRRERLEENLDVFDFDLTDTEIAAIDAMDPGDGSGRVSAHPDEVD
Experiment Summary: Kinetic determination with purified enzyme, NADH cofactor, initial rates (microtiter plate)
Recorded Metric: Kd

Measured Kd, NC(=O)C1=CN([C@@H]2O[C@H](COP(=O)(O)OP(=O)(O)OC[C@H]3O[C@@H](n4cnc5c(N)ncnc54)[C@H](O)[C@@H]3O)[C@@H](O)[C@H]2O)C=CC1 : 3.87 mM

====

Target Under Test: 2,5-diketo-D-gluconic acid reductase A (Corynebacterium sp., wild type SEQ ID NO:1) variant R238E (Corynebacterium sp., UniProt P06632, R238E)
Construct: GroES fragment (N)
Sequence (P06632 whole entry R238E, the tested form may be a part): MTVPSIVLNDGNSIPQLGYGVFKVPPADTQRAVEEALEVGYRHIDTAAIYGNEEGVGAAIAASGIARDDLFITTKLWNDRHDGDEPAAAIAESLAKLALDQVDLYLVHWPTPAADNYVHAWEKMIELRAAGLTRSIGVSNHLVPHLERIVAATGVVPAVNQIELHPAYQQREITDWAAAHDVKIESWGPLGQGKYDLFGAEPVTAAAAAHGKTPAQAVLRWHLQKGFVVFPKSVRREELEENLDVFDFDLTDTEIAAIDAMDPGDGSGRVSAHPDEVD
Experiment Summary: Kinetic determination with purified enzyme, NADH cofactor, initial rates (microtiter plate)
Recorded Metric: pKd
One number for each entry, as −log10 of the molar value.

Measured pKd, NC(=O)C1=CN([C@@H]2O[C@H](COP(=O)(O)OP(=O)(O)OC[C@H]3O[C@@H](n4cnc5c(N)ncnc54)[C@H](O)[C@@H]3O)[C@@H](O)[C@H]2O)C=CC1 : 2.07

====

Target Under Test: 2,5-diketo-D-gluconic acid reductase A (Corynebacterium sp., wild type SEQ ID NO:1) variant K232G (Corynebacterium sp., UniProt P06632, K232G)
Construct: GroES fragment (N)
Sequence (P06632 whole entry K232G, the tested form may be a part): as the sequence (P06632 whole entry K232Q, the tested form may be a part) above, with Q232G counted along it
Experiment Summary: Kinetic determination with purified enzyme, NADH cofactor, initial rates (microtiter plate)
Recorded Metric: Kd (µM)
One number for each entry, in µM.

Measured Kd, NC(=O)C1=CN([C@@H]2O[C@H](COP(=O)(O)OP(=O)(O)OC[C@H]3O[C@@H](n4cnc5c(N)ncnc54)[C@H](O)[C@@H]3O)[C@@H](O)[C@H]2O)C=CC1 : 2020

====

Target Under Test: 2,5-diketo-D-gluconic acid reductase A (Corynebacterium sp., wild type SEQ ID NO:1) variant K232M (Corynebacterium sp., UniProt P06632, K232M)
Construct: GroES fragment (N)
Sequence (P06632 whole entry K232M, the tested form may be a part): as the sequence (P06632 whole entry R238E, the tested form may be a part) above, with K232M, E238R counted along it
Experiment Summary: Kinetic determination with purified enzyme, NADH cofactor, initial rates (microtiter plate)
Recorded Metric: pKd
One number for each entry, as −log10 of the molar value.

Measured pKd, NC(=O)C1=CN([C@@H]2O[C@H](COP(=O)(O)OP(=O)(O)OC[C@H]3O[C@@H](n4cnc5c(N)ncnc54)[C@H](O)[C@@H]3O)[C@@H](O)[C@H]2O)C=CC1 [NADH] : 2.41

====

Target Under Test: 2,5-diketo-D-gluconic acid reductase A, wild type, Corynebacterium sp. (ATCC Strain No. 31090; Genbank Accession No. 4699594; SEQ ID NO:1) (Corynebacterium sp., UniProt P06632)
Construct: GroES fragment (N)
Sequence (P06632 whole entry, the tested form may be a part): as the sequence (P06632 whole entry R238E, the tested form may be a part) above, with E238R counted along it
Experiment Summary: Kinetic determination with purified enzyme, NADH cofactor, initial rates (microtiter plate)
Assay Conditions: read-out: Kia
Recorded Metric: pKd
Numbers only, as −log10 of the molar value.

Measured pKd, NC(=O)C1=CN([C@@H]2O[C@H](COP(=O)(O)OP(=O)(O)OC[C@H]3O[C@@H](n4cnc5c(N)ncnc54)[C@H](O)[C@@H]3O)[C@@H](O)[C@H]2O)C=CC1 : 2.59

====

Target Under Test: 2,5-diketo-D-gluconic acid reductase A (Corynebacterium sp., wild type SEQ ID NO:1) variant K232S (Corynebacterium sp., UniProt P06632, K232S)
Construct: GroES fragment (N)
Sequence (P06632 whole entry K232S, the tested form may be a part): as the sequence (P06632 whole entry K232Q, the tested form may be a part) above, with Q232S counted along it
Experiment Summary: Kinetic determination with purified enzyme, NADH cofactor, initial rates (microtiter plate)
Method: The activities of the purified enzymes were assayed in 96-well microtiter plates on a plate reader. Equation (1) is: [formula] B=2,5-diketo-D-gluconic acid concentration; Kb=Michaelis Constant for 2,5-diketo-D-gluconic acid; Kia=Dissociation Constant for NADH; […] Cells containing plasmids for some of the mutant reductases were grown up on a 1 liter scale using a 10 ml inoculum from a saturated overnight culture. The cells were grown until absorbance of the culture at 600 nm was approximately 1.0. […]
Recorded Metric: pKd
One number for each entry, as −log10 of the molar value.

Measured pKd, NC(=O)C1=CN([C@@H]2O[C@H](COP(=O)(O)OP(=O)(O)OC[C@H]3O[C@@H](n4cnc5c(N)ncnc54)[C@H](O)[C@@H]3O)[C@@H](O)[C@H]2O)C=CC1 : 2.55

Data origin, for the record: patent US6423518B1
